FYI, the data here is from ChEMBL document CHEMBL3988442.

Target: Chromo domain-containing protein 1 (Saccharomyces cerevisiae (strain ATCC 204508 / S288c) (Baker's yeast)) (UniProt P32657)
Sequence (P32657 whole entry, the tested form may be a part): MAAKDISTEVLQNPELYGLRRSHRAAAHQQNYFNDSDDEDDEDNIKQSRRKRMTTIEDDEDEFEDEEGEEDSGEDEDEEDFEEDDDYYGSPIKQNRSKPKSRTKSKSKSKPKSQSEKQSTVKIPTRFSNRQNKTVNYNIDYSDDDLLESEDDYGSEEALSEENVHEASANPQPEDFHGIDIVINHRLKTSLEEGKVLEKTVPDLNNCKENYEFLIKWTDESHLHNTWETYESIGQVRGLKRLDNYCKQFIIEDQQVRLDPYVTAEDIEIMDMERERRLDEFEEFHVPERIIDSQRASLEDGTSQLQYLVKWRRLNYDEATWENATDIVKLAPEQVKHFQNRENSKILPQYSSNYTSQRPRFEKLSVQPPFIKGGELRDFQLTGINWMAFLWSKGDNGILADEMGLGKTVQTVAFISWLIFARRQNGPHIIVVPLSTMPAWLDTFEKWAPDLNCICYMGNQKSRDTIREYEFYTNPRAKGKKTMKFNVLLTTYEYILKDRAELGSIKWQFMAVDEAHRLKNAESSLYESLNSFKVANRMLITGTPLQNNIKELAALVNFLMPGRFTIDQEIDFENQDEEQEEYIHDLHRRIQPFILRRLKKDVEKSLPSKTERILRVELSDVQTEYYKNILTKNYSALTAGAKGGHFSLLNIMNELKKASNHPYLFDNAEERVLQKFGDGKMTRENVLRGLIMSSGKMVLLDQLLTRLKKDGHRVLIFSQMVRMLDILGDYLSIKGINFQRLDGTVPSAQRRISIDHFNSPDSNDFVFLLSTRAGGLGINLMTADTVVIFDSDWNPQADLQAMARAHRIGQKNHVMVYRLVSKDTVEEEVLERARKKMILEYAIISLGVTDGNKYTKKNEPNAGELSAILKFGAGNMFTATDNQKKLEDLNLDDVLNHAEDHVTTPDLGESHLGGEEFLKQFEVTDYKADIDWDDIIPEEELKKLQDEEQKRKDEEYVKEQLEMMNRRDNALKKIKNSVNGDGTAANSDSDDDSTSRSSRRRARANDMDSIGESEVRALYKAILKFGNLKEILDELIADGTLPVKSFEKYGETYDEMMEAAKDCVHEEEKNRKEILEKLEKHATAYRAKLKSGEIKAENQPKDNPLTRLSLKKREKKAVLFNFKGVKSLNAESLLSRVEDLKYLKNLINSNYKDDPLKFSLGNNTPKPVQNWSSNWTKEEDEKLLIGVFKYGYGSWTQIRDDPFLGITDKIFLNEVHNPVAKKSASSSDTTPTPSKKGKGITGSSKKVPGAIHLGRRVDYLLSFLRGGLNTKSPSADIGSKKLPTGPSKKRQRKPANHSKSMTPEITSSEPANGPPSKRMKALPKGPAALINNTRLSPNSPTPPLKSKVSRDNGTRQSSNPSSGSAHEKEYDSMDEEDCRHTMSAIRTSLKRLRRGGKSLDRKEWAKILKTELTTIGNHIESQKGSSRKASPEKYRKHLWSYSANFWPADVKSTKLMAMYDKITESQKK
Test: ScCHD-1 Enzyme Inhibition Assay
Type: functional
Set-up: scale not given: in the data most compounds retested in dose-response had high values
Details: 30 µM
Can you tell me Percent Effect for the items I'm about to list?
Numbers only, in %.

Here are 10 compounds together with their reported answers.
[[record]]
compound = "O=C(c1ccoc1)N1CCCn2cnc(COCC3CC3)c2C1"
display_unit = "%"
numeric_readout = -0.464

[[record]]
compound = "CS(=O)(=O)c1ccc(NC(=O)N2CCc3sccc3C2)cn1"
display_unit = "%"
numeric_readout = 13.6

[[record]]
compound = "COCC1CN(CC2CC2)Cc2nn(C)cc21 (stereo not drawn)"
display_unit = "%"
numeric_readout = -3.01

[[record]]
compound = "CCC(=O)N(C)CC(=O)Nc1ccc(Br)cn1"
display_unit = "%"
numeric_readout = -5.17

[[record]]
compound = "CCn1ccnc1CNCC1CCCN1c1cc(NC)ncn1 (stereo not drawn)"
display_unit = "%"
numeric_readout = -7.63

[[record]]
compound = "Cc1cnn(CC2CCCCN2Cc2nnc(C3CC3)n2C)c1 (stereo not drawn)"
display_unit = "%"
numeric_readout = -2.78

[[record]]
compound = "CCc1nc(C2CCCN2C(=O)C2=COCC2)no1 (stereo not drawn)"
display_unit = "%"
numeric_readout = -3.47

[[record]]
compound = "CCn1cc(CN(C)S(=O)(=O)c2cnn(CC)c2C)c(C)n1"
display_unit = "%"
numeric_readout = -20.5

[[record]]
compound = "O=C(c1ccc(C(F)(F)F)nc1)N1CCCC(n2cncn2)C1 (stereo not drawn)"
display_unit = "%"
numeric_readout = -3.39

[[record]]
compound = "c1cnn(CC2CCCN2c2ncnc3ccsc23)c1 (stereo not drawn)"
display_unit = "%"
numeric_readout = -4.66


Here are 7 compounds. What values of Percent Effect were reported for them?
1. Cc1cccc(CNCc2c(C)nn(C)c2N2CCOCC2)n1
2. Cc1oncc1C(=O)NCc1cc(=O)n2c(n1)CN(C)CCC2
3. CCc1ccc(C(=O)N2CCCC(n3cncn3)C2)o1 (stereo not drawn)
4. NC(=O)c1cc(C2CCCN(CCCOc3ccccc3)C2)n[nH]1 (stereo not drawn)
5. CC(C)(C)c1ncc2c(n1)CN(C(=O)c1ccc(-c3nc[nH]n3)cc1)C2
6. O=C1CN(Cc2ccc(-c3ccccc3C(=O)O)cc2)CCN1
7. CN(C)c1ccc(C(=O)NCC2(O)CCOCC2)cc1

OUTPUT:
-6.04
-1.21
3.19
-4.36
-8.9
-24.4
-5.31
